target: Histone-lysine N-methyltransferase SUV39H2 (Homo sapiens, UniProt Q9H5I1)
Sequence (Q9H5I1 whole entry): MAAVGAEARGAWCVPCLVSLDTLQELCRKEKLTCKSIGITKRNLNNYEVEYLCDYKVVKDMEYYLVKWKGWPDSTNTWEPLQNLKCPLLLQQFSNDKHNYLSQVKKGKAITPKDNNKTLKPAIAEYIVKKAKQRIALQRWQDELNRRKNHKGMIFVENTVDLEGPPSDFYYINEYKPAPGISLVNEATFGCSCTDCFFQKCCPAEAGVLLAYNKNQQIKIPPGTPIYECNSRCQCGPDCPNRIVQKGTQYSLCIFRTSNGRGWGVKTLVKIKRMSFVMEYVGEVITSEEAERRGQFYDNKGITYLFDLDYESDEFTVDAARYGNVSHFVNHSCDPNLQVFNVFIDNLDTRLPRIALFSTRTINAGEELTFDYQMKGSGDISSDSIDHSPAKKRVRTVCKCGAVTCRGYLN
Could you please report measured IC50 for the items listed next?
Quick reminder: number only, in nM, skip the unit.

Q: Fill in the blank: the reported IC50 of "COc1cc(OC)c(-c2cn3ccc(N4CCN(c5cnc(N6CCNCC6)nc5)CC4)cc3n2)cc1Cl" is ____.
Ans: 14.8

Q: Fill in the blank: the reported IC50 of COCC(=O)N1CCN(c2ccn3cc(-c4cc(Cl)c(OC)cc4OC)nc3c2)C(C)C1 (stereo not given) is ____.
Ans: 1.88

Q: Fill in the blank: the reported IC50 of "CNCC(=O)Nc1ccc(-c2ccn3cc(-c4cc(Cl)c(OC)cc4OC)nc3c2)cc1" is ____.
Ans: 80.1

Q: Fill in the blank: the reported IC50 of "COc1cc(OC)c(-c2cn3ccc(-c4ccc(C(=O)[C@H](C)N)cc4)cc3n2)cc1Cl" is ____.
Ans: 99.5

Q: Fill in the blank: the reported IC50 of "COC(=O)c1ccc(CN[C@H]2CC[C@@H](Nc3ccn4cc(-c5cc(Cl)c(OC)cc5OC)nc4c3)CC2)cc1" is ____.
Ans: 24.1
